# System Name: PI3Kδ (Homo sapiens)
# Construct: made in house
# Sequence (O00329 whole entry): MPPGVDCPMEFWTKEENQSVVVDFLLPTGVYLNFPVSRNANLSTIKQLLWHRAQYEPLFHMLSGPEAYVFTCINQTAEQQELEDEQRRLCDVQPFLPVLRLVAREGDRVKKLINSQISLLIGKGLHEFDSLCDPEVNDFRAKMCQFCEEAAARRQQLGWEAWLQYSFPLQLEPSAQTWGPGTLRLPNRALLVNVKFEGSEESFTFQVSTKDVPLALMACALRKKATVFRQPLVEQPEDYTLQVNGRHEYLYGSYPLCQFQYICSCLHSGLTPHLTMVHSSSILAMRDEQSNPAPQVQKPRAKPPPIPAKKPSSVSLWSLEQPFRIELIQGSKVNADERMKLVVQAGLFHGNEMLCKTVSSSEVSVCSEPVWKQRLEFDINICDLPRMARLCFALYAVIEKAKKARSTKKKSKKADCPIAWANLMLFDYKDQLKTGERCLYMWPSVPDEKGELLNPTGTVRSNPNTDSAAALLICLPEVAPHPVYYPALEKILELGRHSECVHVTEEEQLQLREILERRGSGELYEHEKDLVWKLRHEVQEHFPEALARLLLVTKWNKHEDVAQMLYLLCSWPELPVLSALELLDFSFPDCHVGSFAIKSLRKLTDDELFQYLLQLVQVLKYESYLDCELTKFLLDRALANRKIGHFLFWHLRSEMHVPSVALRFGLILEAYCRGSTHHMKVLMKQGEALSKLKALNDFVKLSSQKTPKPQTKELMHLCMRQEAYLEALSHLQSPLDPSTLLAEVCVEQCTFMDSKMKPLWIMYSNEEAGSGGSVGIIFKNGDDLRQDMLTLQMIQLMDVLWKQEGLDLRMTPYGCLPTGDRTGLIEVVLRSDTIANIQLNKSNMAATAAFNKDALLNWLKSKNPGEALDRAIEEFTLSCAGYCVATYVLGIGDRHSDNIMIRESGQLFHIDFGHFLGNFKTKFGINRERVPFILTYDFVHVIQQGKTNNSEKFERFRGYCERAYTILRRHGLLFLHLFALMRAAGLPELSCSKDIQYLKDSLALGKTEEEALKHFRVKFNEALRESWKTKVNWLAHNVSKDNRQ
# Sequence (P27986 whole entry partner): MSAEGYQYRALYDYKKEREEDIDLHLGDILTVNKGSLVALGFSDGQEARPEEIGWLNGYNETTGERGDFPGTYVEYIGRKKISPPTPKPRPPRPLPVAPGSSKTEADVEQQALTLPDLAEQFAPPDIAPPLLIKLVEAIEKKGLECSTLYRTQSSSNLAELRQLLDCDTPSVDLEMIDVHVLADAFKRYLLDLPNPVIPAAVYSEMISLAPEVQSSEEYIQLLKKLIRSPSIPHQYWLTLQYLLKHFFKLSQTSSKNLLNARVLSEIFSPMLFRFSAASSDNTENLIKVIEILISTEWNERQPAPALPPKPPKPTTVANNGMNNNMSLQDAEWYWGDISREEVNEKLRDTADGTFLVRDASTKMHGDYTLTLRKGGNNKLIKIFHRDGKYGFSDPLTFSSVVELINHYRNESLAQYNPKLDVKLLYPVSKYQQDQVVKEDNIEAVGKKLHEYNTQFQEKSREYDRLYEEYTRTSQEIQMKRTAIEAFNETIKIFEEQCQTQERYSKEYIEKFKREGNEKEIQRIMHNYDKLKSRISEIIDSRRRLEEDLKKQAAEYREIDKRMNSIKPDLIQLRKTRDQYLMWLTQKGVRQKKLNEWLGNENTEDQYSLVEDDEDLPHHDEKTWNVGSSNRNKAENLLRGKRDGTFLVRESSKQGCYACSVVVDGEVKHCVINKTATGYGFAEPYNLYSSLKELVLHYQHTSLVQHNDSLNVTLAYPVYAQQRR
# Run Description: Enzymatic activity of PI3K isoforms, TR-FRET assay (PIP3 formation)
# Assay type: biochemical
# Condition Info: PI3Kδ; TR-FRET, 2×Km ATP, 10 μM PIP2; read-out: IC50
# Description: Enzymatic Activity of PI3K Isoforms The TR-FRET assay was used to monitor formation of the product 3,4,5-inositol triphosphate molecule (PIP3) as it competed with fluorescently labeled PIP3 for binding to the GRP-1 pleckstrin homology domain protein. […] Data are normalized based on a positive (1 uM wortmanin) and negative (DMSO) controls. The α, β, δ, and γ IC50 values were calculated from the fit of the dose-response curves to a four-parameter equation. […]
Assay Endpoint: IC50

Sample answers from the record:
[
  {
    "Molecule": "CC(Nc1nc(N)nc(N)c1C#N)c1nc2cccc(Cl)c2c(=O)n1-c1cccc(C#N)c1 (single isomer, unassigned) [Compound 12a]",
    "IC50": "0.001 to 0.01 µM"
  },
  {
    "Molecule": "CC(Nc1nc(N)nc(N)c1C#N)c1nc2c(F)ccc(F)c2c(=O)n1-c1ccccc1 (single isomer, unassigned) [Compound 59a]",
    "IC50": "< 0.001 µM"
  },
  {
    "Molecule": "CC(Nc1nc(N)nc(N)c1C#N)c1nc2cccc(Br)c2c(=O)n1-c1ccccc1 (single isomer, unassigned) [Compound 129a]",
    "IC50": "< 0.001 µM"
  },
  {
    "Molecule": "CC(Nc1nc(N)nc(N)c1C#N)c1nc2cccc(Cl)c2c(=O)n1-c1cccc(F)c1 (single isomer, unassigned) [Compound 108a]",
    "IC50": "< 0.001 µM"
  },
  {
    "Molecule": "CC(Nc1nc(N)nc(N)c1C#N)c1nc2cccc(F)c2c(=O)n1-c1cc(C(F)(F)F)cc(C(F)(F)F)c1 (single isomer, unassigned) [Compound 88a]",
    "IC50": "> 0.05 µM"
  }
]

Parameter requested: IC50. Apply to each item below.
1. N#Cc1c(N)nc(N)nc1NCc1nc2cc(F)c(F)cc2c(=O)n1-c1cc(F)cc(F)c1 [Compound 80]
2. Cc1ccc(F)c2c(=O)n(-c3cc(F)cc(C#N)c3)c(C(C)Nc3nc(N)nc(N)c3C#N)nc12 (single isomer, unassigned) [Compound 83a]

OUTPUT:
1: > 0.05 µM; 2: 0.01 to 0.05 µM

Hi, could you look up IC50 for each item in my list?
1. Cc1cccc2c(=O)n(-c3cccc(C(F)(F)F)c3)c(C(C)Nc3nc(N)nc(N)c3C#N)nc12 (single isomer, unassigned) [Compound 39a]
2. COc1cc(C(F)F)cc(-n2c(C(C)Nc3nc(N)nc(N)c3C#N)nc3cccc(Cl)c3c2=O)c1 (single isomer, unassigned) [Compound 190a]
3. Cc1cccc(-n2c(C(C)Nc3nc(N)nc(N)c3C#N)nc3cccc(Cl)c3c2=O)c1C (single isomer, unassigned) [Compound 202a-1]
4. CC(Nc1nc(N)nc(N)c1C#N)c1nc2c(F)ccc(F)c2c(=O)n1-c1cccc(F)c1 (single isomer, unassigned) [Compound 148a]
5. CC(Nc1nc(N)nc(N)c1C#N)c1nc2cccc(F)c2c(=O)n1-c1cc(F)cc(Cl)c1 (single isomer, unassigned) [Compound 44a]
6. CC(Nc1nc(N)nc(N)c1C#N)c1nc2ccc(F)c(Cl)c2c(=O)n1-c1cccc(C#N)c1 (single isomer, unassigned) [Compound 176a]
7. CC(Nc1nc(N)nc(N)c1C#N)c1nc2c(F)ccc(C#N)c2c(=O)n1-c1ccccc1 (single isomer, unassigned) [Compound 124a]
8. CCC(Nc1nc(N)nc(N)c1C#N)c1nc2c(F)cccc2c(=O)n1-c1cc(F)cc(F)c1 (single isomer, unassigned) [Compound 17a]

OUTPUT:
["0.01 to 0.05 µM", "0.001 to 0.01 µM", "< 0.001 µM", "0.001 to 0.01 µM", "0.01 to 0.05 µM", "0.01 to 0.05 µM", "0.001 to 0.01 µM", "0.001 to 0.01 µM"]

Take each entry in turn and give its IC50.
1. CC(Nc1nc(N)nc(N)c1C#N)c1nc2cccc(Cl)c2c(=O)n1-c1cc(F)cc(OC(F)(F)F)c1 (single isomer, unassigned) [Compound 193a]
2. CC(Nc1nc(N)nc(N)c1C#N)c1nc2cccc(F)c2c(=O)n1-c1cc(C(F)F)cc(C(F)F)c1 (single isomer, unassigned) [Compound 118a]
3. N#Cc1cccc(-n2c(CNc3nc(N)nc(N)c3C#N)nc3c(Cl)cccc3c2=O)c1 [Compound 84]
4. CC(Nc1nc(N)nc(N)c1C#N)c1nc2cccc(C#N)c2c(=O)n1-c1cc(F)cc(C#N)c1 (single isomer, unassigned) [Compound 113a]
5. CC(Nc1nc(N)nc(N)c1C#N)c1nc2cccc(Cl)c2c(=O)n1-c1cccc(CC(F)F)c1 (single isomer, unassigned) [Compound 120a]
6. CC(Nc1nc(N)nc(N)c1C#N)c1nc2cccc(F)c2c(=O)n1-c1cc(Cl)cc(Cl)c1 (single isomer, unassigned) [Compound 42a]
7. CCC(Nc1nc(N)nc(N)c1C#N)c1nc2cccc(F)c2c(=O)n1-c1cccc(C(F)(F)F)c1 (single isomer, unassigned) [Compound 46a]
8. COc1ccc(C)c(-n2c(C(C)Nc3nc(N)nc(N)c3C#N)nc3cccc(Cl)c3c2=O)c1 (single isomer, unassigned) [Compound 187a-2]

OUTPUT:
1. 0.001 to 0.01 µM
2. > 0.05 µM
3. > 0.05 µM
4. > 0.05 µM
5. 0.001 to 0.01 µM
6. 0.01 to 0.05 µM
7. 0.01 to 0.05 µM
8. 0.001 to 0.01 µM

INPUT: Give the value of IC50 reported for the following: Cc1ccc(C)c(-n2c(C(C)Nc3nc(N)nc(N)c3C#N)nc3cccc(Cl)c3c2=O)c1 (single isomer, unassigned) [Compound 191a-2]
OUTPUT: 0.001 to 0.01 µM
